species on record: Homo sapiens; assay: Selectivity ratio of EC50 for human CB1 receptor to EC50 for human CB2 receptor
Short version: Ratio EC50 at least 70 is satisfied, less is not satisfied.

O=C(Nc1sc2c(c1C(=O)N1CC(F)(F)C1)CCOC2)c1c(F)cccc1C(F)(F)F = satisfied
COCCNC(=O)c1c(NC(=O)c2ccccc2Cl)sc2c1CCC2 = satisfied
COCCNC(=O)c1c(NC(=O)c2ccccc2Cl)sc2c1CCC(F)(F)C2 = not satisfied

Form field: Ratio EC50 at least 70? Entry: CC1OCc2sc(NC(=O)CC(C)(C)C)c(C(=O)N3CC(F)(F)C3)c21 (stereo not given)
not satisfied

Next entry: O=C(CN1CCCCC1)Nc1sc2c(c1C(=O)N1CCC(F)(F)CC1)CCCC2
satisfied

###

The following compounds are shown together with reported Efficacy values.
target: Cannabinoid receptor 2 (Homo sapiens); experiment: Agonist activity at human CB2 receptor after 4 hrs by luciferase reporter gene assay relative to control; assay type: functional
Sequence (P34972 whole entry): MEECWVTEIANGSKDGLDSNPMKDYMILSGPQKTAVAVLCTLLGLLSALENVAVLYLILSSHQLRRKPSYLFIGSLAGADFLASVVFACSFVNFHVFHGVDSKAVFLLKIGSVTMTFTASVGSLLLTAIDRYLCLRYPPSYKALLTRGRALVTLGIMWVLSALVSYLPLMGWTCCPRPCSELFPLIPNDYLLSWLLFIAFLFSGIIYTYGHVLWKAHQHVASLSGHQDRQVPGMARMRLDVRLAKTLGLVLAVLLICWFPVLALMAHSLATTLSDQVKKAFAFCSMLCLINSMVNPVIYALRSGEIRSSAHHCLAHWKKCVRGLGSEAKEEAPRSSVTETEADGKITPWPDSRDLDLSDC
Answer format: numeric, % implied, no suffix.

O=C(CN1CCCC1)Nc1sc2c(c1C(=O)N1CC(F)(F)C1)CCCC2 = 89
O=C(Nc1sc2c(c1C(=O)N1CCC(F)(F)CC1)CCOC2)c1c(F)cccc1C(F)(F)F = 97
O=C(Nc1sc2c(c1C(=O)N1CCOCC1)CCOC2)c1cccc(OC(F)(F)F)c1 = 77
O=C(Nc1sc2c(c1C(=O)NCC1CC1)CCC2)c1ccccc1Cl = 76
O=C(CN1CCCCC1)Nc1sc2c(c1C(=O)N1CCC(F)(F)CC1)CCCC2 = 104
CC(C)(C)CC(=O)Nc1sc2c(c1C(=O)N1CCC(F)(F)CC1)C(C)(C)CC2 = 96
COCCNC(=O)c1c(NC(=O)C2CCC2)sc2c1CCCC2 = 101
COCCNC(=O)c1c(NC(=O)c2ccccc2OC(F)(F)F)sc2c1CCOC2 = 100

Form entry - test system: Cannabinoid receptor 2 (Homo sapiens); read-out: Efficacy; compound: COCCNC(=O)c1c(NC(=O)c2ccccc2OC(F)(F)F)sc2c1CCC(F)(F)C2
96

###

The following compounds are shown together with reported Ratio EC50 values.
species: Homo sapiens; experiment: Selectivity ratio of EC50 for human CB1 receptor to EC50 for human CB2 receptor

Look over these answered cases.
O=C(Nc1sc2c(c1C(=O)NCC1CC1)CCC2)c1ccccc1Cl = > 94
O=C(Nc1sc2c(c1C(=O)N1CCCCC1)CCOC2)c1ccccc1C(F)(F)F = 204
O=C(Nc1sc2c(c1C(=O)N1CC(F)(F)C1)CCOC2)c1ccccc1C(F)(F)F = 118
CC1OCc2sc(NC(=O)CC(C)(C)C)c(C(=O)N3CCCCC3)c21 (stereo unspecified) = 42
COC1CN(C(=O)c2c(NC(=O)CN3CCCCC3)sc3c2CCCC3)C1 = > 45

Given O=C(Nc1sc2c(c1C(=O)N1CCOCC1)CCOC2)c1c(F)cccc1C(F)(F)F , state its recorded Ratio EC50.
48

Next entry: COCCNC(=O)c1c(NC(=O)C2CCC2)sc2c1CCCC2
> 49

Next entry: COCCNC(=O)c1c(NC(=O)c2ccccc2C(F)(F)F)sc2c1CCOC2
525

Next entry: O=C(Nc1sc2c(c1C(=O)N1CC(F)(F)C1)CCC(F)(F)C2)c1ccccc1OC(F)(F)F
8

Next entry: COCCNC(=O)c1c(NC(=O)C2CCCN2C(=O)C2CC2)sc2c1CCCC2 (stereo unspecified)
> 29

###

experiment: Volume of distribution at steady state in rat at 1 mg/kg, iv; format: ADME, organism-based; set-up: dose 1 mg/kg, route intravenous; details: in vivo, read-out: Vdss
recorded endpoint: Vd (L/kg)
Answer format: numeric, L/kg implied, no suffix.

Given O=C(Nc1sc2c(c1C(=O)N1CC(F)(F)C1)CCOC2)c1c(F)cccc1C(F)(F)F , state its recorded Vd.
3.61

###

experiment: Clearance in rat at 1 mg/kg, iv; format: ADME, organism-based; design: dose 1 mg/kg, route intravenous; conditions: in vivo
recorded endpoint: clearance (mL/min/kg)
Answer format: numeric, mL/min/kg implied, no suffix.

Given O=C(Nc1sc2c(c1C(=O)N1CC(F)(F)C1)CCOC2)c1c(F)cccc1C(F)(F)F , state its recorded clearance.
102

###

target: Cannabinoid receptor 1 (Homo sapiens); assay: Agonist activity at human CB1 receptor after 4 hrs by luciferase reporter gene assay relative to control; format: functional
Sequence (P21554 whole entry): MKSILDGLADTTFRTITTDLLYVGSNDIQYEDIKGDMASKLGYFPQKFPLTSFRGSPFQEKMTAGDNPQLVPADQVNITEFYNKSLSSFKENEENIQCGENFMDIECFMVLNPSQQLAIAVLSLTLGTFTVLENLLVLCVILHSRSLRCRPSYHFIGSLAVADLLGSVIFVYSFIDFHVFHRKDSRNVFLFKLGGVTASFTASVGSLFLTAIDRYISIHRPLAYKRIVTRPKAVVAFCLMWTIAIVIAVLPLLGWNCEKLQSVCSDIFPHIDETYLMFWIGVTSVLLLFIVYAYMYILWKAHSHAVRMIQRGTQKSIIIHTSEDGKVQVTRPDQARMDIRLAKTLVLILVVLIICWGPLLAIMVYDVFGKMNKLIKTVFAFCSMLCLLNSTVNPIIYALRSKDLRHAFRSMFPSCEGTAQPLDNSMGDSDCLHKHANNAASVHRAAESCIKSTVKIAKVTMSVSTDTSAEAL
recorded endpoint: Efficacy (%)
Answer format: numeric, % implied, no suffix.

Form entry - test system: Cannabinoid receptor 1 (Homo sapiens); read-out: Efficacy; compound: O=C(Nc1sc2c(c1C(=O)N1CCOCC1)CCOC2)c1c(Cl)cccc1Cl
78

###

experiment: Half life in mouse liver microsomes; type: ADME, Microsome
recorded endpoint: half-life (min)
Answer format: numeric, min implied, no suffix.

Look over these answered cases.
O=C(Nc1sc2c(c1C(=O)N1CC(F)(F)C1)CCOC2)c1ccccc1OC(F)(F)F = 25.5
COCCNC(=O)c1c(NC(=O)c2ccccc2C(F)(F)F)sc2c1CCOC2 = 19.8

Given O=C(Nc1sc2c(c1C(=O)N1CCCCC1)CCOC2)c1ccccc1C(F)(F)F , state its recorded half-life.
15.5

Next entry: COC1CN(C(=O)c2c(NC(=O)c3ccccc3C(F)(F)F)sc3c2CCOC3)C1
37.3

Next entry: COCCNC(=O)c1c(NC(=O)c2c(F)cccc2C(F)(F)F)sc2c1CCOC2
21

Next entry: O=C(Nc1sc2c(c1C(=O)N1CCCCC1)CCOC2)c1ccccc1OC(F)(F)F
10

Next entry: O=C(Nc1sc2c(c1C(=O)N1CC(F)(F)C1)CCOC2)c1c(F)cccc1C(F)(F)F
51.3

Next entry: O=C(Nc1sc2c(c1C(=O)N1CC(F)(F)C1)CCOC2)c1ccccc1C(F)(F)F
37.4

###

assay: Half life in rat at 1 mg/kg, iv; format: ADME, organism-based; design: dose 1 mg/kg, route intravenous; details: in vivo
recorded endpoint: half-life (min)
Answer format: numeric, min implied, no suffix.

Given O=C(Nc1sc2c(c1C(=O)N1CC(F)(F)C1)CCOC2)c1c(F)cccc1C(F)(F)F , state its recorded half-life.
30

###

target: UniProtKB P34972; experiment: Agonist activity at human CB2 receptor after 4 hrs by luciferase reporter gene assay relative to control; type: functional
The following molecules are shown together with reported Efficacy values.
Answer format: numeric, % implied, no suffix.

O=C(Nc1sc2c(c1C(=O)N1CCOCC1)CCOC2)c1ccccc1OC(F)(F)F = 106
O=C(Nc1sc2c(c1C(=O)N1CCCCC1)CCOC2)c1ccccc1OC(F)(F)F = 101
COC1CN(C(=O)c2c(NC(=O)CN3CCCCC3)sc3c2CCCC3)C1 = 92
CC(C)(C)CC(=O)Nc1sc2c(c1C(=O)N1CC(F)(F)C1)CCCC2 = 99
O=C(CN1CCCC1)Nc1sc2c(c1C(=O)N1CCC(F)(F)CC1)CCCC2 = 87

Given O=C(Nc1sc2c(c1C(=O)N1CC(F)(F)C1)CCOC2)c1c(F)cccc1C(F)(F)F , state its recorded Efficacy.
96

Next entry: COCCNC(=O)c1c(NC(=O)c2ccccc2Cl)sc2c1CCC(F)(F)C2
105

Next entry: O=C(Nc1sc2c(c1C(=O)N1CCOCC1)CCOC2)c1c(F)cccc1C(F)(F)F
100

Next entry: CC(C)(C)C(=O)c1c(NC(=O)c2ccccc2OC(F)(F)F)sc2c1CCOC2
102

Next entry: O=C(Nc1sc2c(c1C(=O)NCC1CC1)CCOC2)c1ccccc1OC(F)(F)F
94

###

biological target: UniProt P34972; experiment: Agonist activity at human CB2 receptor after 4 hrs by luciferase reporter gene assay relative to control; type: functional
recorded endpoint: Efficacy (%)
Answer format: numeric, % implied, no suffix.

O=C(Nc1sc2c(c1C(=O)N1CCOCC1)CCOC2)c1ccc(Cl)cc1Cl = 108

Given COC1CN(C(=O)c2c(NC(=O)c3c(F)cccc3C(F)(F)F)sc3c2CCOC3)C1 , state its recorded Efficacy.
100

Next entry: COCCNC(=O)c1c(NC(=O)c2ccccc2Cl)sc2c1CCC2
52

Next entry: O=C(Nc1sc2c(c1C(=O)N1CCC(F)(F)CC1)CCOC2)c1ccccc1OC(F)(F)F
96

Next entry: COCCNC(=O)c1c(NC(=O)C2CCCC2)sc2c1CCCC2
81

###

species: Homo sapiens; test: Selectivity ratio of EC50 for human CB1 receptor to EC50 for human CB2 receptor
recorded endpoint: Ratio EC50
Response field accepts a number only; no unit should be typed.

Look over these answered cases.
O=C(Nc1sc2c(c1C(=O)N1CCC(F)(F)CC1)CCOC2)c1ccccc1C(F)(F)F = 57
CC(C)(C)CC(=O)Nc1sc2c(c1C(=O)NCC1CC1)C(C)(C)CC2 = 38
COC1CN(C(=O)c2c(NC(=O)c3c(F)cccc3C(F)(F)F)sc3c2CCOC3)C1 = 275

Given O=C(Nc1sc2c(c1C(=O)N1CC(F)(F)C1)CCC(F)(F)C2)c1ccccc1Cl , state its recorded Ratio EC50.
2

Next entry: O=C(Nc1sc2c(c1C(=O)N1CCC(F)(F)CC1)CCOC2)c1ccccc1OC(F)(F)F
38
